pIC50 for assorted compounds
# Experimental target: Prostaglandin G/H synthase 1 (Ovis aries, UniProt P05979)
# Sequence (P05979 whole entry): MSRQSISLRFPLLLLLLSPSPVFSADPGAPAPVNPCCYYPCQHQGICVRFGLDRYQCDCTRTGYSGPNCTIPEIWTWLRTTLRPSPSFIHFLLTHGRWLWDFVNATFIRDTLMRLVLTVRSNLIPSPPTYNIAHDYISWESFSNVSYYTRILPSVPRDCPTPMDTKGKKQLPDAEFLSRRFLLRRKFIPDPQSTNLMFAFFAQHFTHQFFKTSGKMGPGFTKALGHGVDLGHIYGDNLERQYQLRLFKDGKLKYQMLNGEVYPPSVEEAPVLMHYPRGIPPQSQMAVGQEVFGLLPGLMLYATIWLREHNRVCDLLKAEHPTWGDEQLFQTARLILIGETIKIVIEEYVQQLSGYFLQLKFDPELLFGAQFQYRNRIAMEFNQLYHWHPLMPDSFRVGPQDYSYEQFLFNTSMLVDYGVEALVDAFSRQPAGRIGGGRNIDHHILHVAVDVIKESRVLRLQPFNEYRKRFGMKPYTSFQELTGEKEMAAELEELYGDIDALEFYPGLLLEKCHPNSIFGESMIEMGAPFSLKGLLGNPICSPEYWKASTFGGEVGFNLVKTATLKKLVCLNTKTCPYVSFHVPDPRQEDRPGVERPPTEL
Keep in mind that pIC50 stands for -log10 of concentration in molar terms.

O=C1OC(c2cccnc2)=N/C1=C/c1ccc(O)cc1: 6.57
COc1ccc(/C=C2/N=C(c3cccnc3)OC2=O)cc1: 6.68
COc1ccc(/C=C2/N=C(c3cccnc3)N(c3ccccc3)NC2=O)cc1: 6.97

stdin: What pIC50 value was documented for this compound, O=C1OC(c2cccnc2)=N/C1=C\c1ccccc1O ?
stdout: 6.36

stdin: O=C1NN(c2ccccc2)C(c2cccnc2)=N/C1=C/c1ccc(Cl)cc1 ?
stdout: 6.80

stdin: O=C1OC(c2cccnc2)=N/C1=C\c1cccnc1 ?
stdout: 6.47

stdin: CN(C)c1ccc(/C=C2/N=C(c3cccnc3)OC2=O)cc1 ?
stdout: 7.10

stdin: O=C1OC(c2cccnc2)=N/C1=C/c1ccc(Cl)cc1 ?
stdout: 6.35

stdin: O=C1NN(c2ccccc2)C(c2cccnc2)=N/C1=C/c1ccccc1O ?
stdout: 7.07

stdin: O=C1OC(c2cccnc2)=N/C1=C\c1ccccc1 ?
stdout: 6.36

Source of measurements: BindingDB's records for doi:10.1016/j.bioorg.2017.04.012
